# study.system: MAPK8 (human)
# assay.method.text: KINOMEscan competition binding
# condition.details: compound 10.0 µM
property: kinase still bound, per cent of control (%)

smiles_string=COc1cc2c(Nc3ccc(NC(=O)c4ccccc4)cc3)ncnc2cc1OCCCN1CCOCC1 study_system="MAPK8 (human)" endpoint_unit=% recorded_result=67
smiles_string=CNC(=O)Nc1ccc(-c2nc(N3CC4CCC(C3)O4)c3cnn(C4CCC5(CC4)OCCO5)c3n2)cc1 study_system="MAPK8 (human)" endpoint_unit=% recorded_result=91
smiles_string=C=CC(=O)Nc1ccc(C(=O)c2sc(Nc3ccc(N4CCN(C)CC4)cc3OC)nc2N)cc1 study_system="MAPK8 (human)" endpoint_unit=% recorded_result=4.2
smiles_string=N#Cc1cc(-c2ccnc(Nc3ccc(-n4cnc(-c5cccnc5)n4)cc3)n2)cc(N2CCOCC2)c1 study_system="MAPK8 (human)" endpoint_unit=% recorded_result=0.05
smiles_string=CCc1nc(-c2cccc(C)c2)c(-c2ccnc(NC(=O)c3ccccc3)c2)s1 study_system="MAPK8 (human)" endpoint_unit=% recorded_result=0.3

====

# study.system: UniProt O14965
# Sequence (O14965 whole entry, looked up): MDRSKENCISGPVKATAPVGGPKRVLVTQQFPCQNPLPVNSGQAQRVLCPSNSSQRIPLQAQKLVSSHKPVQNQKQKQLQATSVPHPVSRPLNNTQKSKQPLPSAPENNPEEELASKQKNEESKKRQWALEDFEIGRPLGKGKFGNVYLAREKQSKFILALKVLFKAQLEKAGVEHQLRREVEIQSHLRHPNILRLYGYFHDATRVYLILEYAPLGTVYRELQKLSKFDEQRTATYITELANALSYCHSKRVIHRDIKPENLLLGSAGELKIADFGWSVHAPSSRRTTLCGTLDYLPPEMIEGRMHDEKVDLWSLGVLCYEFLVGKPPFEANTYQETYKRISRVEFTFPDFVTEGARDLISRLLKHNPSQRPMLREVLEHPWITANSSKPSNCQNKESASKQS
# assay.method.text: KINOMEscan competition binding
# condition.details: compound 10.0 µM
property: kinase still bound, per cent of control (%)

molecule="COc1cc(C)c(Sc2cnc(NC(=O)c3ccc(CNC(C)C(C)C)cc3)s2)cc1C(=O)N1CCN(C(C)=O)CC1 (stereo not given)" property="kinase still bound, per cent of control" recorded_result=100
molecule=CCOc1cc(N2CCC(O)CC2)ccc1Nc1ncc2c(n1)N(C)c1ccccc1C(=O)N2C property="kinase still bound, per cent of control" recorded_result=100
molecule=COc1cc(N2CCC(C(N)=O)CC2)ccc1Nc1nc(N)c(Cl)c(Nc2ccccc2S(=O)(=O)C(C)C)n1 property="kinase still bound, per cent of control" recorded_result=100
molecule=C=CC(=O)Nc1ccc(C(=O)c2sc(Nc3ccc(N4CCN(C)CC4)cc3OC)nc2N)cc1 property="kinase still bound, per cent of control" recorded_result=93
molecule=CCCS(=O)(=O)Nc1ccc(F)c(C(=O)c2c[nH]c3ncc(Cl)cc23)c1F property="kinase still bound, per cent of control" recorded_result=60

====

# study.system: IRAK1 (human) (UniProt P51617)
# Sequence (P51617 whole entry, looked up): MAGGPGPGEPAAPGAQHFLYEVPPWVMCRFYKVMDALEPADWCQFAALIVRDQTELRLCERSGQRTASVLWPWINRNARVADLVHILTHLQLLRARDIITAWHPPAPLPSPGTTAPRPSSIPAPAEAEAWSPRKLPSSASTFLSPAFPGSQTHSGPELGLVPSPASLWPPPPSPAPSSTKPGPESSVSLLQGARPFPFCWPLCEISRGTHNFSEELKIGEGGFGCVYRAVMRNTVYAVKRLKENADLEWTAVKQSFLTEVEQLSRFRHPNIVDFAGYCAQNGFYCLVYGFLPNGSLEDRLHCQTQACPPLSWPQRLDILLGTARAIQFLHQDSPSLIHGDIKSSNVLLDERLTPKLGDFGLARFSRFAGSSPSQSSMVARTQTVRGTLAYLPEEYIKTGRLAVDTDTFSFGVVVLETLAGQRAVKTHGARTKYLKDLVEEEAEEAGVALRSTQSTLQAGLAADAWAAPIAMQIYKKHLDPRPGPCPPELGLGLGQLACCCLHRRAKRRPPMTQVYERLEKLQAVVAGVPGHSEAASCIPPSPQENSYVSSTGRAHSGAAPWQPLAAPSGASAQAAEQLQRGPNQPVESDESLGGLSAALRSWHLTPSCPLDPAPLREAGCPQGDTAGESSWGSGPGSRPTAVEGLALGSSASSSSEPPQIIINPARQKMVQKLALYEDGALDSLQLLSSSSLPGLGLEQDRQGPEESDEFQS
# assay.method.text: KINOMEscan competition binding
# condition.details: compound 10.0 µM
Label T when kinase still bound, per cent of control is strictly below 60%; at or above that, label F.

compound=COc1cc2c(Nc3ccc(NC(=O)c4ccccc4)cc3)ncnc2cc1OCCCN1CCOCC1 category=F
compound=CNC(=O)Nc1ccc(-c2nc(N3CC4CCC(C3)O4)c3cnn(C4CCC5(CC4)OCCO5)c3n2)cc1 category=F
compound=CCN(CCO)CCCOc1ccc2c(Nc3cc(CC(=O)Nc4cccc(F)c4)[nH]n3)ncnc2c1 category=F
compound=CCOc1cc(N2CCC(O)CC2)ccc1Nc1ncc2c(n1)N(C)c1ccccc1C(=O)N2C category=F
compound=Cc1cn(-c2cc(C(=O)Nc3ccc(C)c(NC(=O)c4ccno4)c3)cc(C(F)(F)F)c2)cn1 category=F
compound=CC(=O)c1c(C)c2cnc(Nc3ccc(N4CCNCC4)cn3)nc2n(C2CCCC2)c1=O category=T
compound="CC1=C(C(=O)Nc2cc3cn[nH]c3cc2F)C(c2ccc(C(F)(F)F)cc2)CC(=O)N1 (centres undefined)" category=F
compound=COc1cc2ncnc(Nc3cccc(Cl)c3)c2cc1OC category=T

====

# study.system: MAPK6 (human)
# assay.method.text: KINOMEscan competition binding
# condition.details: compound 10.0 µM
property: kinase still bound, per cent of control

compound="COc1cc(C)c(Sc2cnc(NC(=O)c3ccc(CNC(C)C(C)C)cc3)s2)cc1C(=O)N1CCN(C(C)=O)CC1 (stereo not drawn)" property="kinase still bound, per cent of control" recorded_result=100%
compound=CNC(=O)Nc1ccc(-c2nc(N3CC4CCC(C3)O4)c3cnn(C4CCC5(CC4)OCCO5)c3n2)cc1 property="kinase still bound, per cent of control" recorded_result=85%
compound=CCN1CCN(Cc2ccc(NC(=O)c3ccc(C)c(/C=C/c4cnc5[nH]ccc5c4OC)c3)cc2C(F)(F)F)CC1 property="kinase still bound, per cent of control" recorded_result=100%
compound=COc1cc2ncnc(Nc3cccc(Cl)c3)c2cc1OC property="kinase still bound, per cent of control" recorded_result=33%
compound=N#C/C(=C1/Nc2ccccc2S1)c1ccnc(NCCc2cccnc2)n1 property="kinase still bound, per cent of control" recorded_result=26%
compound=O=c1[nH]c2ccccc2n1C1CCN(Cc2ccc(-c3nc4cc5[nH]cnc5cc4nc3-c3ccccc3)cc2)CC1 property="kinase still bound, per cent of control" recorded_result=100%
compound=COc1ccc(N(C(=O)Oc2cc(C(=O)Nc3cccc(C(F)(F)F)c3)ccc2C)c2ccnc(Nc3ccc(N4CCN(C)CC4)cc3)n2)c(OC)c1 property="kinase still bound, per cent of control" recorded_result=100%
compound=CCN(CCO)CCCOc1ccc2c(Nc3cc(CC(=O)Nc4cccc(F)c4)[nH]n3)ncnc2c1 property="kinase still bound, per cent of control" recorded_result=100%
compound=CCCS(=O)(=O)Nc1ccc(F)c(C(=O)c2c[nH]c3ncc(Cl)cc23)c1F property="kinase still bound, per cent of control" recorded_result=100%
compound=C=CC(=O)Nc1ccc(C(=O)c2sc(Nc3ccc(N4CCN(C)CC4)cc3OC)nc2N)cc1 property="kinase still bound, per cent of control" recorded_result=90%
compound=Cc1cn(-c2cc(C(=O)Nc3ccc(C)c(NC(=O)c4ccno4)c3)cc(C(F)(F)F)c2)cn1 property="kinase still bound, per cent of control" recorded_result=100%
compound=COc1cc(N2CCC(C(N)=O)CC2)ccc1Nc1nc(N)c(Cl)c(Nc2ccccc2S(=O)(=O)C(C)C)n1 property="kinase still bound, per cent of control" recorded_result=100%
compound=CCc1nc(-c2cccc(C)c2)c(-c2ccnc(NC(=O)c3ccccc3)c2)s1 property="kinase still bound, per cent of control" recorded_result=85%
compound=CC(=O)c1c(C)c2cnc(Nc3ccc(N4CCNCC4)cn3)nc2n(C2CCCC2)c1=O property="kinase still bound, per cent of control" recorded_result=57%
compound=N#Cc1cc(-c2ccnc(Nc3ccc(-n4cnc(-c5cccnc5)n4)cc3)n2)cc(N2CCOCC2)c1 property="kinase still bound, per cent of control" recorded_result=0.95%
compound=COc1cc2c(Nc3ccc(NC(=O)c4ccccc4)cc3)ncnc2cc1OCCCN1CCOCC1 property="kinase still bound, per cent of control" recorded_result=100%
compound="CC1=C(C(=O)Nc2cc3cn[nH]c3cc2F)C(c2ccc(C(F)(F)F)cc2)CC(=O)N1 (stereo not drawn)" property="kinase still bound, per cent of control" recorded_result=98%
compound=CCOc1cc(N2CCC(O)CC2)ccc1Nc1ncc2c(n1)N(C)c1ccccc1C(=O)N2C property="kinase still bound, per cent of control" recorded_result=100%

====

// kinase still bound, per cent of control lookup, one value per entry
# study.system: FGFR1 (human) (UniProt P11362)
# Sequence (P11362 whole entry, looked up): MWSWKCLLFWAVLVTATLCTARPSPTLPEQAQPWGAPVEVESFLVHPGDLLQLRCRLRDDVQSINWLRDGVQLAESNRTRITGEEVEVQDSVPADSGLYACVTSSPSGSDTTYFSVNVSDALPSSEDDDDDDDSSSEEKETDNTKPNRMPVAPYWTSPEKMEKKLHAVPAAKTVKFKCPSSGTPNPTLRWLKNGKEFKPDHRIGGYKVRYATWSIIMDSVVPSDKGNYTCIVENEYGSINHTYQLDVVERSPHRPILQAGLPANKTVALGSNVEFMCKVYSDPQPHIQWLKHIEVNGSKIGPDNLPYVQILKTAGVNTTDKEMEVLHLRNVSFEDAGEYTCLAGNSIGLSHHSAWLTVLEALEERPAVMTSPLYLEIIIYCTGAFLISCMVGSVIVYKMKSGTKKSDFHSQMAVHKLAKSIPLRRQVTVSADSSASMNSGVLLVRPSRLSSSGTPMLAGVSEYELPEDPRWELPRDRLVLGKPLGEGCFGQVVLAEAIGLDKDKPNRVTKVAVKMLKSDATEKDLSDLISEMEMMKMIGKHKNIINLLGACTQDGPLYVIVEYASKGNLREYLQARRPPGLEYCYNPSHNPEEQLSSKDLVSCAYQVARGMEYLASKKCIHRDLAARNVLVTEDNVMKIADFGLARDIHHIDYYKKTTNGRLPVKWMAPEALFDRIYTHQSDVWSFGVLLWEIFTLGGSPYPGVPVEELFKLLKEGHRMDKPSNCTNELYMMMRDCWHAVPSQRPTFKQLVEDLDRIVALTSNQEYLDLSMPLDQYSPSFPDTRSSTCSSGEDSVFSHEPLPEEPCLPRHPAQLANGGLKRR
# assay.method.text: KINOMEscan competition binding
# condition.details: compound 10.0 µM
property: kinase still bound, per cent of control (%)

compound=N#C/C(=C1/Nc2ccccc2S1)c1ccnc(NCCc2cccnc2)n1 recorded_result=98
compound=COc1ccc(N(C(=O)Oc2cc(C(=O)Nc3cccc(C(F)(F)F)c3)ccc2C)c2ccnc(Nc3ccc(N4CCN(C)CC4)cc3)n2)c(OC)c1 recorded_result=0.6
compound="COc1cc(C)c(Sc2cnc(NC(=O)c3ccc(CNC(C)C(C)C)cc3)s2)cc1C(=O)N1CCN(C(C)=O)CC1 (centres undefined)" recorded_result=100
compound=COc1cc(N2CCC(C(N)=O)CC2)ccc1Nc1nc(N)c(Cl)c(Nc2ccccc2S(=O)(=O)C(C)C)n1 recorded_result=100

====

// kinase still bound, per cent of control lookup, one value per entry
# study.system: DYRK2 (human) (UniProt Q92630)
# Sequence (Q92630 whole entry, looked up): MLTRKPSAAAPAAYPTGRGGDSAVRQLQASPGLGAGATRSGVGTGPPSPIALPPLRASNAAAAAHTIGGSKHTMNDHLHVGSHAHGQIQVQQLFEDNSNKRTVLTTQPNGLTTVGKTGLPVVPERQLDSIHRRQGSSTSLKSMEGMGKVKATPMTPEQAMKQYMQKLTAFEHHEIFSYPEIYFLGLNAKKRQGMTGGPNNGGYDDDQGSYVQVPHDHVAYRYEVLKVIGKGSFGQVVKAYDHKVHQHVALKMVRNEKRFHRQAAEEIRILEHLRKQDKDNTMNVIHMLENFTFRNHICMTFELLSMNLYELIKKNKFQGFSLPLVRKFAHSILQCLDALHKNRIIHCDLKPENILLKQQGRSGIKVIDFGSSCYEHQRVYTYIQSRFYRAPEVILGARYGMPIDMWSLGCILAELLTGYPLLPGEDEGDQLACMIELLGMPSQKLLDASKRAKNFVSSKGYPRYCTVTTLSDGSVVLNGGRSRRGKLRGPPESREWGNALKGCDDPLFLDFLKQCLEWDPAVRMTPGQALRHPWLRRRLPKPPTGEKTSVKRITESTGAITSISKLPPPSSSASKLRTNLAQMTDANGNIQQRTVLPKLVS
# assay.method.text: KINOMEscan competition binding
# condition.details: compound 10.0 µM
property: kinase still bound, per cent of control (%)

smiles_string=CC(=O)c1c(C)c2cnc(Nc3ccc(N4CCNCC4)cn3)nc2n(C2CCCC2)c1=O recorded_result=5.5
smiles_string=O=c1[nH]c2ccccc2n1C1CCN(Cc2ccc(-c3nc4cc5[nH]cnc5cc4nc3-c3ccccc3)cc2)CC1 recorded_result=88
smiles_string=N#C/C(=C1/Nc2ccccc2S1)c1ccnc(NCCc2cccnc2)n1 recorded_result=0.7
smiles_string=CCN1CCN(Cc2ccc(NC(=O)c3ccc(C)c(/C=C/c4cnc5[nH]ccc5c4OC)c3)cc2C(F)(F)F)CC1 recorded_result=78
smiles_string=CCOc1cc(N2CCC(O)CC2)ccc1Nc1ncc2c(n1)N(C)c1ccccc1C(=O)N2C recorded_result=100

====

# study.system: EPHA3 (human) (UniProt P29320)
# Sequence (P29320 whole entry, looked up): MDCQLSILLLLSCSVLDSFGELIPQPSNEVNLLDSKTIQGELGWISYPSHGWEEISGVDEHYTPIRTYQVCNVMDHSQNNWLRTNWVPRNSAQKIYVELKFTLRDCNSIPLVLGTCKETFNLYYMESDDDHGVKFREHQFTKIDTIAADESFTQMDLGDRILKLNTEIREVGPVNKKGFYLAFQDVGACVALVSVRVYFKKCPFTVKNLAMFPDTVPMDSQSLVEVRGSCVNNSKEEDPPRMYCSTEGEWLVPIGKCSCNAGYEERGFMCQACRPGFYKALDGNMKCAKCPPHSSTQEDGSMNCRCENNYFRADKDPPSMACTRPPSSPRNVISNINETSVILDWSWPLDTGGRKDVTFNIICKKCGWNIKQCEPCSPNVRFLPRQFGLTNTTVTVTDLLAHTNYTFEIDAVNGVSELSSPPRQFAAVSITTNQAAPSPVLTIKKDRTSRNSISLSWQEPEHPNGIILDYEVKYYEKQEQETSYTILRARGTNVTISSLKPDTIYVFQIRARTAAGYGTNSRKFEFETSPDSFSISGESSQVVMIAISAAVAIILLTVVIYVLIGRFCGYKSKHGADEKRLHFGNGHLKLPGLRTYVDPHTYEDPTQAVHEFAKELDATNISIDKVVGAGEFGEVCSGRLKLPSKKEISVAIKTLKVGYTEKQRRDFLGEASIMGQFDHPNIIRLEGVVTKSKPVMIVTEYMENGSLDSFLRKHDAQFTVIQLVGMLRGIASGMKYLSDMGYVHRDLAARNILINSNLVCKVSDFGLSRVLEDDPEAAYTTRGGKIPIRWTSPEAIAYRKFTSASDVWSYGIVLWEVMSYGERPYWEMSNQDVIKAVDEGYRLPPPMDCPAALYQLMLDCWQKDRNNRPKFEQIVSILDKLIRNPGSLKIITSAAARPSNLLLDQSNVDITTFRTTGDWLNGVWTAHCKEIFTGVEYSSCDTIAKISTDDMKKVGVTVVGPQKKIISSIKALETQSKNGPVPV
# assay.method.text: KINOMEscan competition binding
# condition.details: compound 10.0 µM
property: kinase still bound, per cent of control

compound=O=c1[nH]c2ccccc2n1C1CCN(Cc2ccc(-c3nc4cc5[nH]cnc5cc4nc3-c3ccccc3)cc2)CC1 recorded_result=82%
compound=CNC(=O)Nc1ccc(-c2nc(N3CC4CCC(C3)O4)c3cnn(C4CCC5(CC4)OCCO5)c3n2)cc1 recorded_result=100%
compound=C=CC(=O)Nc1ccc(C(=O)c2sc(Nc3ccc(N4CCN(C)CC4)cc3OC)nc2N)cc1 recorded_result=80%
compound=COc1cc2ncnc(Nc3cccc(Cl)c3)c2cc1OC recorded_result=28%
compound=CCN1CCN(Cc2ccc(NC(=O)c3ccc(C)c(/C=C/c4cnc5[nH]ccc5c4OC)c3)cc2C(F)(F)F)CC1 recorded_result=4.8%
compound=CCCS(=O)(=O)Nc1ccc(F)c(C(=O)c2c[nH]c3ncc(Cl)cc23)c1F recorded_result=65%
compound=Cc1cn(-c2cc(C(=O)Nc3ccc(C)c(NC(=O)c4ccno4)c3)cc(C(F)(F)F)c2)cn1 recorded_result=9.5%
compound=N#C/C(=C1/Nc2ccccc2S1)c1ccnc(NCCc2cccnc2)n1 recorded_result=73%
compound=CCN(CCO)CCCOc1ccc2c(Nc3cc(CC(=O)Nc4cccc(F)c4)[nH]n3)ncnc2c1 recorded_result=62%
compound="COc1cc(C)c(Sc2cnc(NC(=O)c3ccc(CNC(C)C(C)C)cc3)s2)cc1C(=O)N1CCN(C(C)=O)CC1 (stereo not given)" recorded_result=25%
